Recorded measurements of cell viability, one per entry
System: ED cells (E. derm NBM-6, ATCC CCL-57)
ASSAY_EXPLANATION: cell viability (ATP, CellTiter-Glo) relative to untreated control (fraction of control); higher = less cytotoxic
PARTICULARS: 0.5 µM; incubation time: 72h
Just the number, please, no unit after it.

# count of solved cases: 2
SMI	cell viability
COC(=O)N[C@H](C(=O)N[C@@H](Cc1ccccc1)[C@@H](O)CN(Cc1ccc(-c2ccccn2)cc1)NC(=O)[C@@H](NC(=O)OC)C(C)(C)C)C(C)(C)C	1.1
CC(C)c1nc(CN(C)C(=O)N[C@H](C(=O)N[C@@H](Cc2ccccc2)C[C@H](O)[C@H](Cc2ccccc2)NC(=O)OCc2cncs2)C(C)C)cs1	1.01

For the next question, use this compound.
Task item: Sample "Cc1ccnc2c1NC(=O)c1cccnc1N2C1CC1" — what was its cell viability?
Reply: 1.04
